Taken from the OPERA property sets (Mansouri et al. 2018).

MEASURED_METRIC: melting point (°C)
// units = °C; emit number, no label

BrCC(Br)(Br)Br
0
Cc1ccccc1Br
-27.8
N#Cc1ccc(C#N)cc1
224
CCS(=O)(=O)c1nnc(N(C)C(=O)NC)s1
156
CCCC(C)(C)C(C)(C)C
-54

Which melting point value belongs to "CC(=O)[O-].[NH4+]" ? 114

Which melting point value belongs to "O=C1CCC(=O)N1Br" ? 174

Which melting point value belongs to "COc1cc(C=C2CCCC(=Cc3ccc(O)c(OC)c3)C2=O)ccc1O" ? 178

Which melting point value belongs to "O=C(NC(=O)c1c(F)cccc1F)Nc1ccc(CO/N=C(\c2ccc(Cl)cc2)C2CC2)cc1" ? 144

Which melting point value belongs to "O=C1CN=C(c2ccccc2)c2cc([N+](=O)[O-])ccc2N1" ? 225
